- System tested: GDP-bound KRAS wild-type protein (Homo sapiens)
- Sequence (P01116 1-188 isoform P01116-2): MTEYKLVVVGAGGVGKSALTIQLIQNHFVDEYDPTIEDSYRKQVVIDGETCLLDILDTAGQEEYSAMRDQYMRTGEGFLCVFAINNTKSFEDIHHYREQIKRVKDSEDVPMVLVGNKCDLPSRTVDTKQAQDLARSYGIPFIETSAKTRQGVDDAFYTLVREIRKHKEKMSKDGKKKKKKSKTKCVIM
- Protocol notes: Binding to KRAS by surface plasmon resonance (SPR), dissociation constant KD
- Condition: Single Cycle Kinetics, 1:1 binding model
Attribute measured: Kd (nM)
The response must be a number in nM with no trailing unit.

Prompt: Request - read-out Kd | tested on GDP-bound KRAS wild-type protein (Homo sapiens) | molecule "CC[C@H](C)[C@@H]1NC(=O)[C@H](CC2CC2)N(C)C(=O)C[C@@H](C(=O)N(C)C)N(C)C(=O)[C@H](C2CCCC2)N(C)C(=O)C2(CCCC2)NC(=O)[C@@H]2CCCN2C(=O)[C@H](CCc2cc(F)c(C(F)(F)F)c(F)c2)NC(=O)CN(C)C(=O)[C@H](Cc2ccc(C(F)(F)F)cc2)N2C[C@H](C)[C@H](C)C[C@@H](C2=O)N(C)C(=O)CN(C)C1=O"
Completion: 0.061

Prompt: Quick one: "CCC[C@H]1C(=O)N[C@@H]([C@@H](C)CC)C(=O)N(C)CC(=O)N(C)[C@H]2C/C=C\CCN(C2=O)[C@@H](Cc2ccc(C)cc2)C(=O)N(C)CC(=O)N[C@@H](CCc2ccc(C(F)(F)F)c(OC)c2)C(=O)N2C[C@@H](C)C[C@H]2C(=O)NC2(CC(C)(C)C2)C(=O)N(C)[C@@H](C2CCCC2)C(=O)N(C)[C@H](C(=O)N(C)C)CC(=O)N1C"
Completion: 0.074
